TARGET: human recombinant histamine H1 receptor (Homo sapiens, UniProt P35367)
Construct: expressed in transfected cells; host or cells: CHO-K1
Sequence (P35367 whole entry): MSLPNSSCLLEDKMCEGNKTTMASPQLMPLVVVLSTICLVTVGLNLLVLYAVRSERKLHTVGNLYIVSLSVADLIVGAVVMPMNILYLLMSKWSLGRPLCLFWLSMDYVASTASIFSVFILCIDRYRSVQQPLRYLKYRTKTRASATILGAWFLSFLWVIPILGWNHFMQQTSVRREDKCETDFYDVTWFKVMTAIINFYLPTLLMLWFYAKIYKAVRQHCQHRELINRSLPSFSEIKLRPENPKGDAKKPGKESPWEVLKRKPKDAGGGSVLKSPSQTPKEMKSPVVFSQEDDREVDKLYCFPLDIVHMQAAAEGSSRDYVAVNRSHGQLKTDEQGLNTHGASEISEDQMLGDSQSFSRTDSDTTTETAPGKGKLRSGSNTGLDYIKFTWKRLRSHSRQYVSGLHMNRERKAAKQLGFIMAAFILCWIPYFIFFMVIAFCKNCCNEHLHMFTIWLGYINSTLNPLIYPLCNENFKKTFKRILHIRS
EXPERIMENTAL_PROTOCOL: Histamine H1 radioligand binding ([3H]Pyrilamine)
CONDITIONS_USED: compound at 1 μM; 1.2 nM [3H]Pyrilamine; CHO K1 cells; read-out: Histamine H1 Binding (1 μM), percentage inhibition
Procedure: To evaluate in radioligand binding assays the activity of compounds of the invention, human recombinant histamine H1 receptor expressed in Chinese hamster ovary (CHO) K1 cells (De Backer, M. et al, Biochem. Biophys. Res. Comm. 197(3):1601, 1993) in a modified Tris-HCl buffer (50 mM Tris-HCl, pH 7.4, 2 mM MgCl2, 100 mM NaCl, 250 mM Sucrose) was used. […] Receptor proteins were filtered and washed, the filters were then counted to determine [^3H]Pyrilamine specifically bound. […]
QUANTITY_NAME: inhibition at 1 µM (%)
One number for each entry, in %.

Guide cases for inhibition at 1 µM, answers given:
MOLECULE: Cc1ccc2c(c1)c1c3n2CC(C)(c2ccncc2)OC(C)CC3(C)CN(C)C1 (centres unmarked)
UNITS_TEXT: %
inhibition at 1 µM: 6
//
MOLECULE: Cc1ccc2c(c1)c1c3n2CC=C(c2ccc(F)cc2)CC3(C)CN(C)C1 (centres unmarked)
UNITS_TEXT: %
inhibition at 1 µM: 94
//
MOLECULE: Cc1ccc2c(c1)c1c3n2CC(c2ccc(F)cc2)CCC3(C)CN(C)C1 (centres unmarked)
UNITS_TEXT: %
inhibition at 1 µM: 19
//
MOLECULE: Cc1ccc2c(c1)c1c3n2CC(c2ccncc2)OC(C)CC3(C)CN(C)C1 (centres unmarked)
UNITS_TEXT: %
inhibition at 1 µM: 6
//
MOLECULE: Cc1ccc2c(c1)c1c3n2CCC(c2ccc(F)cc2)CC3(C)CN(C)C1 (centres unmarked)
UNITS_TEXT: %
inhibition at 1 µM: 78

Quick one: give me inhibition at 1 µM for each item below, same order please.
1. Cc1ccc2c(c1)c1c3n2CC(c2ccc(F)cc2)=CCC3(C)CN(C)C1 (centres unmarked)
2. Cc1ccc2c(c1)c1c3n2CC(c2ccc(F)cc2)CC3(C)CN(C)C1 (centres unmarked)
3. Cc1ccc2c(c1)c1c3n2CC(c2ccncc2)CC3(C)CN(C)C1 (centres unmarked)

[11, 51, 12]

---

TARGET: human recombinant serotonin (5-Hydroxytryptamine) 5-HT2A receptor (Homo sapiens)
Construct: expressed in transfected cells; host or cells: CHO-K1
Sequence (P28223 whole entry): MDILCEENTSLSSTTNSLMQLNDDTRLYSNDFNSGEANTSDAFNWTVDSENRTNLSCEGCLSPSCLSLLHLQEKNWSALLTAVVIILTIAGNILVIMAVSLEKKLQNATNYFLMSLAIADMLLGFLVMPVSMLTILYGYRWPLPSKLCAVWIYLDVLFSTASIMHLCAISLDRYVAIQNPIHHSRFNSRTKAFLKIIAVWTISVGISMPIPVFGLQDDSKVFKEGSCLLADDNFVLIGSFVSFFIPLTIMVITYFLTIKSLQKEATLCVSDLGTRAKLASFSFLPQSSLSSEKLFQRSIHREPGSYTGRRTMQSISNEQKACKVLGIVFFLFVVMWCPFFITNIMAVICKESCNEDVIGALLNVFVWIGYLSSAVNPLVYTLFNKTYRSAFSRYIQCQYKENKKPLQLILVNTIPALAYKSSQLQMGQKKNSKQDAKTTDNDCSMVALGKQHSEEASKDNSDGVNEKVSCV
EXPERIMENTAL_PROTOCOL: Serotonin 5-HT2A radioligand binding ([3H]Ketanserin)
CONDITIONS_USED: compound at 0.1 μM; CHO K1 cells; read-out: Percentage inhibition of ligand binding, Serotonin 5-HT2A
Label scheme for inhibition at 0.1 µM: low = under 40%, middle = from 40% up to 60%, high = 60% and over

Consider the worked cases shown below.
COMPOUND: Cc1ccc2c(c1)c1c3n2CC(c2ccc(F)cc2)CCC3(C)CN(C)C1 (centres unmarked)
QUALITATIVE_LABEL: middle

COMPOUND: Cc1ccc2c(c1)c1c3n2CC(C)(c2ccncc2)OC(C)CC3(C)CN(C)C1 (centres unmarked)
QUALITATIVE_LABEL: high

The entry to classify is Cc1ccc2c(c1)c1c3n2CC(c2ccncc2)=CCC3(C)CN(C)C1 (centres unmarked) ; which class holds it? low

The entry to classify is Cc1ccc2c(c1)c1c3n2CC(c2ccc(F)cc2)=CCC3(C)CN(C)C1 (centres unmarked) ; which class holds it? middle

The entry to classify is Cc1ccc2c(c1)c1c3n2CC(c2ccncc2)OC(C)CC3(C)CN(C)C1 (centres unmarked) ; which class holds it? high

The entry to classify is Cc1ccc2c(c1)c1c3n2CC(c2ccncc2)CC3(C)CN(C)C1 (centres unmarked) ; which class holds it? middle

The entry to classify is Cc1ccc2c(c1)c1c3n2CC=C(c2ccc(F)cc2)CC3(C)CN(C)C1 (centres unmarked) ; which class holds it? middle

The entry to classify is Cc1ccc2c(c1)c1c3n2C(c2ccccc2)CCC3(C)CN(C)C1 (centres unmarked) ; which class holds it? low

---

TARGET: human recombinant dopamine D2L receptor (Homo sapiens, UniProt P14416)
Construct: expressed in transfected cells; host or cells: CHO
Sequence (P14416 whole entry): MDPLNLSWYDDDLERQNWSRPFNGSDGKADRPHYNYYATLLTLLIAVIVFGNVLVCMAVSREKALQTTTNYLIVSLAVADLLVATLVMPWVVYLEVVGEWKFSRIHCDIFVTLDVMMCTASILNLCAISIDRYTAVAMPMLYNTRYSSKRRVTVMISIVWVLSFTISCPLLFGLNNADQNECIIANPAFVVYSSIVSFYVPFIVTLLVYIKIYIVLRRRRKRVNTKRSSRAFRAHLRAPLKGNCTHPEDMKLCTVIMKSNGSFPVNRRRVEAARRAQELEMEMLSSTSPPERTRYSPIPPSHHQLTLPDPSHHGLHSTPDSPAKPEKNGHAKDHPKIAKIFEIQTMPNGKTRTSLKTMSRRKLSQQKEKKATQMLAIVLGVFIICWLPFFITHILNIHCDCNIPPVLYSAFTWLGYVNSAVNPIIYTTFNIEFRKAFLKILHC
EXPERIMENTAL_PROTOCOL: Dopamine D2L radioligand binding ([3H]Spiperone)
CONDITIONS_USED: compound at 1 μM; CHO cells; read-out: Percentage inhibition of ligand binding, Dopamine D2L
QUANTITY_NAME: inhibition at 1 µM (%)
One number for each entry, in %.

Guide cases for inhibition at 1 µM, answers given:
MOLECULE: Cc1ccc2c(c1)c1c3n2C(c2ccccc2)=CCC3(C)CN(C)C1 (stereo not shown) [Compound 10]
QUANTITY_NAME: inhibition at 1 µM
NUMBER: 9
--
MOLECULE: Cc1ccc2c(c1)c1c3n2CC(c2ccncc2)=CCC3(C)CN(C)C1 (stereo not shown) [Compound 11]
QUANTITY_NAME: inhibition at 1 µM
NUMBER: 3
--
MOLECULE: Cc1ccc2c(c1)c1c3n2CC(c2ccncc2)CC3(C)CN(C)C1 (stereo not shown) [Compound 4]
QUANTITY_NAME: inhibition at 1 µM
NUMBER: 14
--
MOLECULE: Cc1ccc2c(c1)c1c3n2C(c2ccccc2)CCC3(C)CN(C)C1 (stereo not shown) [Compound 12]
QUANTITY_NAME: inhibition at 1 µM
NUMBER: 5
--
MOLECULE: Cc1ccc2c(c1)c1c3n2CC(c2ccc(F)cc2)=CCC3(C)CN(C)C1 (stereo not shown) [Compound 1]
QUANTITY_NAME: inhibition at 1 µM
NUMBER: 12

Quick one: give me inhibition at 1 µM for each item below, same order please.
1. Cc1ccc2c(c1)c1c3n2CCC(c2ccc(F)cc2)CC3(C)CN(C)C1 (stereo not shown) [Compound 3]
2. Cc1ccc2c(c1)c1c3n2CC(c2ccc(F)cc2)CCC3(C)CN(C)C1 (stereo not shown) [Compound 7]
3. Cc1ccc2c(c1)c1c3n2CC(c2ccncc2)OC(C)CC3(C)CN(C)C1 (stereo not shown) [Compound 8]

1: 22; 2: 0; 3: 13

Quick one: give me inhibition at 1 µM for each item below, same order please.
1. Cc1ccc2c(c1)c1c3n2CC=C(c2ccc(F)cc2)CC3(C)CN(C)C1 (stereo not shown) [Compound 5]
2. Cc1ccc2c(c1)c1c3n2CC(C)(c2ccncc2)OC(C)CC3(C)CN(C)C1 (stereo not shown) [Compound 9]

1: 60; 2: 2

---

TARGET: human recombinant serotonin (5-Hydroxytryptamine) 5-HT7 receptor (Homo sapiens, UniProt P34969)
Construct: expressed in transfected cells; host or cells: CHO
Sequence (P34969 whole entry): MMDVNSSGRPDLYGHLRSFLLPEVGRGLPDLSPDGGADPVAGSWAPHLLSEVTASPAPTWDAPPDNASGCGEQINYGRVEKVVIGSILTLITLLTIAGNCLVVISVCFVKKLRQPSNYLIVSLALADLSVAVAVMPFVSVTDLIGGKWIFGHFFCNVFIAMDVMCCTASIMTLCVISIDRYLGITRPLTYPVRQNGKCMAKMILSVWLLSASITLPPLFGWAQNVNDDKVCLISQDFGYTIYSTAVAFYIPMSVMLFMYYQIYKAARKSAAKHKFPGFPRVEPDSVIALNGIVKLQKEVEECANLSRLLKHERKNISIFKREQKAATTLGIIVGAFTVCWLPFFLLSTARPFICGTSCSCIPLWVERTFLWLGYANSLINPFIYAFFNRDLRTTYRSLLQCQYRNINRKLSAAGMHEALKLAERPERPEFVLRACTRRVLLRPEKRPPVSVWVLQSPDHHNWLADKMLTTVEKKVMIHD
EXPERIMENTAL_PROTOCOL: Serotonin 5-HT7 radioligand binding ([3H]LSD)
CONDITIONS_USED: compound at 0.1 μM; CHO cells; read-out: Percentage inhibition of ligand binding, Serotonin 5-HT7
Entry flag: class 1 if inhibition at 0.1 µM reaches 40%; class 0 if it does not.

Consider the worked cases shown below.
COMPOUND: Cc1ccc2c(c1)c1c3n2CC(c2ccncc2)=CCC3(C)CN(C)C1 (stereo not drawn)
QUALITATIVE_LABEL: class 0

COMPOUND: Cc1ccc2c(c1)c1c3n2CC(c2ccc(F)cc2)CCC3(C)CN(C)C1 (stereo not drawn)
QUALITATIVE_LABEL: class 1

COMPOUND: Cc1ccc2c(c1)c1c3n2C(c2ccccc2)=CCC3(C)CN(C)C1 (stereo not drawn)
QUALITATIVE_LABEL: class 0

COMPOUND: Cc1ccc2c(c1)c1c3n2CC(c2ccncc2)CC3(C)CN(C)C1 (stereo not drawn)
QUALITATIVE_LABEL: class 0

Hello, I need to know if Cc1ccc2c(c1)c1c3n2CCC(c2ccc(F)cc2)CC3(C)CN(C)C1 (stereo not drawn) has measured inhibition at 0.1 µM not below 40%. Thanks! class 1

---

TARGET: human recombinant serotonin (5-Hydroxytryptamine) 5-HT2C receptor (Homo sapiens, UniProt P28335)
Construct: expressed in transfected cells; host or cells: CHO-K1
Sequence (P28335 33-458): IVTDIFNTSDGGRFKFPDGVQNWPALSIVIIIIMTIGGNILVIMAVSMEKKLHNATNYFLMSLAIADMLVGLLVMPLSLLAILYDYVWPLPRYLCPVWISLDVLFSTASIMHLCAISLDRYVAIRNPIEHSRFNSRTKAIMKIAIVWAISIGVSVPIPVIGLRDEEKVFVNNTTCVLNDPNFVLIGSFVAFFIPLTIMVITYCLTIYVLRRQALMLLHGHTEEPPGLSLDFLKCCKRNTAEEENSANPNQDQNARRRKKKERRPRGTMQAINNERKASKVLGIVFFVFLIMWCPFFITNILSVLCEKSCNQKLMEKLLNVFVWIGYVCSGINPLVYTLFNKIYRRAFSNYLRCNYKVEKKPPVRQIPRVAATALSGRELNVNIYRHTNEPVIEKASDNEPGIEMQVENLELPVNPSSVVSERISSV
EXPERIMENTAL_PROTOCOL: Serotonin 5-HT2C radioligand binding ([3H]Mesulergine)
CONDITIONS_USED: compound at 0.1 μM; CHO K1 cells; read-out: Percentage inhibition of ligand binding, Serotonin 5-HT2C
QUANTITY_NAME: inhibition at 0.1 µM

COMPOUND: Cc1ccc2c(c1)c1c3n2CC(c2ccncc2)=CCC3(C)CN(C)C1 (centres unmarked)
inhibition at 0.1 µM: 7%

Quick one: give me inhibition at 0.1 µM for each item below, same order please.
1. Cc1ccc2c(c1)c1c3n2C(c2ccccc2)=CCC3(C)CN(C)C1 (centres unmarked)
2. Cc1ccc2c(c1)c1c3n2CCC(c2ccc(F)cc2)CC3(C)CN(C)C1 (centres unmarked)
3. Cc1ccc2c(c1)c1c3n2CC(C)(c2ccncc2)OC(C)CC3(C)CN(C)C1 (centres unmarked)

["17%", "39%", "73%"]
